Data credit: PubChem BioAssay (NCATS)

Tested on: HaCat
Measurement notes: Cytotoxic Profiling of Annotated Libraries Using Quantitative High-Throughput Screening (AID 1296008); further: nearly all actives have a fitted effect of over 60% in size
Condition description: Five cell lines viability, CellTiter-Glo ATP luminescence, 48-72 h
Records with an inconclusive call do not appear. The source made the active and inactive calls. The call rests on the fitted dose curve; in most records, active means well fitted inhibition curve with a large enough effect; inconclusive means small, poorly fitted or top-dose-only effect; inactive means flat fitted curve, though single readings scatter.
Reply using exactly one outcome from true for active, false for inactive

Field: example entries. Status: answers known.
[[record]]
compound = "Oc1cc2c(cc1O)C1c3ccc(O)c(O)c3OCC1(O)C2 (configuration not stated)"
assigned_class = "false"

[[record]]
compound = "CN[C@@H]1C[C@H]2O[C@@](C)([C@H]1OC)n1c3ccccc3c3c4c(c5c6ccccc6n2c5c31)C(=O)N[C@H]4O"
assigned_class = "true"

[[record]]
compound = "COc1cc([C@@H]2c3cc4c(cc3[C@@H](O[C@@H]3O[C@@H]5CO[C@@H](c6cccs6)O[C@@H]5[C@H](O)[C@@H]3O)[C@H]3COC(=O)[C@H]23)OCO4)cc(OC)c1O"
assigned_class = "true"


**Q:** Answer briefly: the call reported for `C[C@H](CCC(=O)O)[C@H]1CC[C@H]2[C@@H]3[C@H](O)C[C@@H]4C[C@H](O)CC[C@]4(C)[C@@H]3CC[C@]12C` in this assay.
**A:** false

**Q:** Test call for this compound, please: CC(N[C@H]1CCCC[C@H]1NC(=O)c1ccc(Cl)cc1)c1cccc2ccccc12 (some centres not stated)
**A:** false

**Q:** Just curious, what result did `Nc1nc2c(c(=O)[nH]1)N(C=O)[C@H](CNc1ccc(C(=O)N[C@@H](CCC(=O)O)C(=O)O)cc1)CN2` get here?
**A:** false

**Q:** Hi team, can someone confirm the assay call for `NC[C@H]1O[C@H](O[C@H]2[C@@H](O)[C@@H](O[C@H]3O[C@H](CO)[C@@H](O)[C@H](N)[C@@H]3O)[C@H](N)C[C@@H]2N)[C@H](N)C[C@H]1O` ?
**A:** false

**Q:** // return assay outcome for `FC(F)c1nc2ccccc2n1-c1nc(N2CCOCC2)nc(N2CCOCC2)n1`
**A:** true

**Q:** # outcome recorded in this test, key = `CC(=O)[C@]1(O)Cc2c(O)c3c(c(O)c2[C@@H](O[C@H]2C[C@H](N)[C@@H](O)[C@H](C)O2)C1)C(=O)c1ccccc1C3=O`
**A:** true

**Q:** How did this test come out for `C=CC(=O)Nc1cc(NC(=O)c2ccc(C)c(NC(=O)c3ccno3)c2)cc(C(F)(F)F)c1` ?
**A:** false

**Q:** I would be grateful if you could indicate the recorded call for COc1ccc2c(c1OC)C(=O)OC2[C@H]1c2c(cc3c(c2OC)OCO3)CCN1C (some centres not stated) .
**A:** true

**Q:** Recorded test outcome, item `COC(=O)C=CC(=O)OC`
**A:** false

**Q:** # outcome recorded in this test, key = Nc1nc(=O)n([C@H]2CSC(CO)O2)cc1F (some centres not stated)
**A:** false

**Q:** I'd appreciate the recorded outcome for `CC(Oc1ccc(O)cc1)(P(=O)(O)O)P(=O)(O)O` from this test.
**A:** false
